Kindly state IC50 for each of the entries shown.
# Experimental system: Gastrin/cholecystokinin type B receptor (Oryctolagus cuniculus)
# Assay method text: In vitro inhibition of gastrin-induced [Ca2+] cytosolic elevation in isolated rabbit parietal cells
Your answer should be a plain number; it is taken to be in nM.

Data point: O=C(O)CC[C@H](NC(=O)CCC(NC(=O)c1cc(Cl)cc(Cl)c1)C(=O)N1CCC2(CCCC2)CC1)C(=O)Nc1cccc2cccnc12 (stereo partly drawn) ; IC50 = 54

Quick note, IC50 for O=C(O)CC[C@H](NC(=O)CCC(NC(=O)c1cc(Cl)cc(Cl)c1)C(=O)N1CCC2(CCCC2)CC1)C(=O)Nc1cccc2ccccc12 (stereo partly drawn) landed at 7

What the record says about CCCCCN(CCCCC)C(=O)[C@H](CCC(=O)O)NC(=O)CCC(NC(=O)c1cc(Cl)cc(Cl)c1)C(=O)N1CCC2(CCCC2)CC1 (stereo partly drawn) : IC50 is 48

* * *

# Experimental system: Gastrin/cholecystokinin type B receptor (Oryctolagus cuniculus)
# Assay method text: In vitro inhibition of gastrin-induced [Ca2+] cytosolic elevation in isolated rabbit parietal cells
Metric: pIC50
Worth noting: pIC50 values are minus log10 of concentrations stated in mol/L.

What the record says about O=C(CCC(NC(=O)c1cc(Cl)cc(Cl)c1)C(=O)N1CCC2(CCCC2)CC1)NC(Cc1ccc(O)cc1)C(=O)O (centres undefined) : pIC50 is 6.76

Looking up O=C(O)CC[C@@H](NC(=O)CCC(NC(=O)c1cc(Cl)cc(Cl)c1)C(=O)N1CCC2(CCCC2)CC1)C(=O)NCCc1ccccc1 (some centres undefined) , I see its pIC50 listed as 6.40

Item: O=C(CCC(NC(=O)c1cc(Cl)cc(Cl)c1)C(=O)N1CCC2(CCCC2)CC1)NC(Cc1c[nH]c2ccccc12)C(=O)O (centres undefined) | pIC50: 7.92

Lab note: O=C(CCC(NC(=O)c1cc(Cl)cc(Cl)c1)C(=O)N1CCC2(CCCC2)CC1)N[C@H](Cc1ccccn1)C(=O)O (some centres undefined) gave pIC50 of 6.51

* * *

# Experimental system: Gastrin/cholecystokinin type B receptor (Cavia porcellus)
# Assay method text: Inhibition of binding of [3H]N-Me-N-Leu-CCK-8 to cholecystokinin type B receptor in guinea pig brain cortex
For each of the compounds below, state its pIC50.
API: returns pIC50 as number; meaning -log10 of concentration in mol/L.

Item: O=C(CCC(NC(=O)c1cc(Cl)cc(Cl)c1)C(=O)N1CCC2(CCCC2)CC1)N[C@H](Cc1ccccn1)C(=O)O (stereo partly drawn) | pIC50: 6.81

For O=C(O)CC[C@H](NC(=O)CCC(NC(=O)c1cc(Cl)cc(Cl)c1)C(=O)N1CCC2(CCCC2)CC1)C(=O)N1CCc2ccccc2C1 (stereo partly drawn) the compound record lists pIC50 as 6.85

Please fill in: pIC50 reported for O=C(O)CC[C@@H](NC(=O)CCC(NC(=O)c1cc(Cl)cc(Cl)c1)C(=O)N1CCC2(CCCC2)CC1)C(=O)N1CCC2(CCCC2)CC1 (stereo partly drawn) = 5.77

The compound listed as O=C(CCC(NC(=O)c1cc(Cl)cc(Cl)c1)C(=O)N1CCC2(CCCC2)CC1)NC(Cc1ccc(O)cc1)C(=O)O (stereo not drawn) shows pIC50 equal to 6.49

For reference, reported pIC50 for O=C(O)CC[C@H](NC(=O)CCC(NC(=O)c1cc(Cl)cc(Cl)c1)C(=O)N1CCC2(CCCC2)CC1)C(=O)N1CCC2(CCCC2)CC1 (stereo partly drawn) stands at 6.85

get_value(item= CN(Cc1ccccc1)C(=O)C[C@H](NC(=O)CCC(NC(=O)c1cc(Cl)cc(Cl)c1)C(=O)N1CCC2(CCCC2)CC1)C(=O)O (stereo partly drawn) , readout=pIC50) returns 6.80

Value of pIC50 reported for the compound O=C(O)CNC(=O)CCC(NC(=O)c1cc(Cl)cc(Cl)c1)C(=O)N1CCC2(CCCC2)CC1 (stereo not drawn) is 5.99

Please fill in: pIC50 reported for O=C(O)CC[C@H](NC(=O)CCC(NC(=O)c1cc(Cl)cc(Cl)c1)C(=O)N1CCC2(CCCC2)CC1)C(=O)N1CCC2CCCCC2C1 (stereo partly drawn) = 6.73

Value of pIC50 reported for the compound O=C(CCC(NC(=O)c1cc(Cl)cc(Cl)c1)C(=O)N1CCC2(CCCC2)CC1)N[C@@H](Cc1c[nH]c2ccccc12)C(=O)O (stereo partly drawn) is 6.67

Just so you know, measured pIC50 for O=C(O)CC[C@@H](NC(=O)CCC(NC(=O)c1cc(Cl)cc(Cl)c1)C(=O)N1CCC2(CCCC2)CC1)C(=O)NCc1ccccc1 (stereo partly drawn) came out at 6.37

Per the record, O=C(O)CC[C@H](NC(=O)CCC(NC(=O)c1cc(Cl)cc(Cl)c1)C(=O)N1CCC2(CCCC2)CC1)C(=O)Nc1cccc2ncccc12 (stereo partly drawn) has pIC50 of 6.87

O=C(CC(NC(=O)CCC(NC(=O)c1cc(Cl)cc(Cl)c1)C(=O)N1CCC2(CCCC2)CC1)C(=O)O)NCc1ccccc1 (stereo not drawn) has a reported pIC50 of 6.41

Record O=C(CCC(NC(=O)c1cc(Cl)cc(Cl)c1)C(=O)N1CCC2(CCCC2)CC1)N[C@H](Cc1cccc2ccccc12)C(=O)O (stereo partly drawn) , field pIC50: 7.17

Query O=C(CCC(NC(=O)c1cc(Cl)cc(Cl)c1)C(=O)N1CCC2(CCCC2)CC1)NC(C(=O)O)c1ccccc1 (stereo not drawn) yields pIC50 of 6.41

Short answer for CN(Cc1ccccc1)C(=O)CC[C@H](NC(=O)CCC(NC(=O)c1cc(Cl)cc(Cl)c1)C(=O)N1CCC2(CCCC2)CC1)C(=O)O (stereo partly drawn) : pIC50 was 7.11

Record O=C(CCC(NC(=O)c1cc(Cl)cc(Cl)c1)C(=O)N1CCC2(CCCC2)CC1)N[C@H](Cc1ccc2ccccc2c1)C(=O)O (stereo partly drawn) , field pIC50: 6.89

Kindly note the recorded pIC50 for CCCCC(NC(=O)CCC(NC(=O)c1cc(Cl)cc(Cl)c1)C(=O)N1CCC2(CCCC2)CC1)C(=O)O (stereo not drawn) , which is 5.98

Form field pIC50, entry O=C(O)C[C@@H](NC(=O)CCC(NC(=O)c1cc(Cl)cc(Cl)c1)C(=O)N1CCC2(CCCC2)CC1)C(=O)N1CCC2(CCCC2)CC1 (stereo partly drawn) : 5.87

Where do these numbers come from? They come from BindingDB's records for doi:10.1021/jm950372w.
